Reported MIC by item:
System: Enterococcus faecalis
assay-info: Antibacterial activity against vancomycin-sensitive Enterococcus faecalis APV 00404 after 16 to 24 hrs by broth microdilution method
Type: functional
Field format: number, assumed µg/mL, no unit text.

Need MIC of O=c1nc(NCC(O)CN2CCN(c3nc(F)cc4ccc(F)cc34)CC2)c2cc(F)ccc2o1 (racemic) , thanks.
0.12

And CN[C@H](CC(C)C)C(=O)N[C@H]1C(=O)N[C@@H](CC(N)=O)C(=O)N[C@H]2C(=O)N[C@H]3C(=O)N[C@H](C(=O)N[C@H](C(=O)O)c4cc(O)cc(O)c4-c4cc3ccc4O)[C@H](O)c3ccc(c(Cl)c3)Oc3cc2cc(c3O[C@@H]2O[C@H](CO)[C@@H](O)[C@H](O)[C@H]2O[C@H]2C[C@](C)(N)[C@H](O)[C@H](C)O2)Oc2ccc(cc2Cl)[C@H]1O [VANCOMYCIN] ?
2

Again, but for O=C(O)c1cn(C2CC2)c2cc(N3CCNCC3)c(F)cc2c1=O [CIPROFLOXACIN]
2

Input O=c1nc(NCC(O)CN2CCN(c3nccc4ccc(F)cc34)CC2)c2cc(F)ccc2o1 (racemic)
0.25
